# credit: PubChem BioAssay (NCI)

Tested on: MDA-MB-435
Log the outcome using a class from class 1 (active), class 0 (inactive)

Input line: // outcome(item) with item = CCCCCCCC(=O)SCC/C=C/[C@@H]1CC(=O)NCc2cc(ccn2)C2=N[C@@](C)(CS2)C(=O)N[C@@H](C(C)C)C(=O)O1
Output line: class 1

Input line: Each compound tested received a call. Report the one for Nc1ncnc2n[nH]c(Nc3ccc(F)cc3)c12 .
Output line: class 0

Input line: Please share the test call associated with O=C(CCc1nnc2sc(-c3ccc(Cl)cc3Cl)nn12)c1nc2ncccc2[nH]1 .
Output line: class 0

Input line: Write down the call the test reported for this compound. Item: COc1cc2c3c(n(C)c(=O)c2cc1OC)-c1cc2c(cc1/C3=C\CCN)OCO2
Output line: class 0

Input line: Please state the recorded outcome for this compound: CN(C(=O)c1ccc(C(F)(F)F)cc1)c1ccc(Oc2ccc3c(c2)cc(C(=O)N2CCN(Cc4ccc(OC(F)F)cc4)CC2)n3C)nc1
Output line: class 0

Input line: Assay outcome for O=C(CSc1ccc(Cl)cc1)Nc1ccc(-c2nc3ccccc3s2)c(Cl)c1 : what was it?
Output line: class 0

Input line: Hey, what did the test say about COc1cc2c3c(n(C)c(=O)c2cc1OC)-c1cc2c(cc1/C3=C\CCCN)OCO2 ?
Output line: class 0

Input line: For COc1ccc(/C=C(/C#N)n2nnc3cccc(F)c32)cc1 , which call appears in the assay record?
Output line: class 1

Input line: In this assay, the call recorded for COc1cccc(-c2nc(-c3ccc(NC(=O)C(C)C)cc3)[nH]c2-c2ccnc(Br)c2)c1 was what?
Output line: class 0
